# EXPERIMENT: NCI Yeast Anticancer Drug Screen. Data for the sgs1 mgt1 strain (AID 161);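 also: 0% = growth of cultures given vehicle only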
# CONDITION CONTEXT: S. cerevisiae sgs1 mgt1 strain, at 50.0 µM, hits give high values
This is part of a sample that, as a whole, favours compounds with a hit. Of some 79,000 tested, about 15% had one in any assay. The source made the active and inactive calls. Rule as the data show it: active = growth inhibition above about 70%; inactive = the rest.

MOLECULE	growth inhibition
Nc1ncc2c(ncn2CC(O)CO)n1 (stereo unspecified)	-1.55% (inactive)
CC(=O)OCC(OC(C)=O)C(OC1OC(COC(C)=O)C(OC(C)=O)C(OC(C)=O)C1OC(C)=O)C(OC(C)=O)c1cnn(-c2ccccc2)n1 (stereo unspecified)	-8.15% (inactive)
N#CC1=CN(Cc2ccccc2)C(c2ccccc2)C=C1 (stereo unspecified)	-3.9% (inactive)
CCOC(=O)c1cccc(C(=O)OCC)n1	11.8% (inactive)
CC(=O)OC1COC(NC(=O)N(CCCl)N=O)C(OC(C)=O)C1OC(C)=O (stereo unspecified)	-25.8% (inactive)
CC1OC(OC2C(CO)OC(O[C@H]3CC[C@@]4(C)C(=CC[C@H]5[C@@H]6C[C@@H]7O[C@]8(CC[C@@H](C)CN8)[C@@H](C)[C@@H]7[C@@]6(C)CC[C@@H]54)C3)C(O)C2O)C(O)C(O)C1O (stereo partly specified)	-0.75% (inactive)
COC(=O)c1nc(=S)[nH]c(C(=O)OC)c1C(=O)c1cccnc1	17.4% (inactive)
NCCCCCC(=O)O	-17.6% (inactive)
C=CCOC(=O)CCC(=O)OCC=C	-4.65% (inactive)
CCOC(=O)[C@H]1Nc2ccc(C)cc2C2c3ccccc3CC21 (stereo partly specified)	3.45% (inactive)
CCCC[N+](C)(CCCC)CCCC	7.8% (inactive)
COC(=O)c1ccc(/C2=c3\cc/c([n-]3)=C(\c3ccc(C(=O)OC)cc3)c3ccc([n-]3)/C(c3ccc(C(=O)OC)cc3)=c3/cc/c([n-]3)=C(\c3ccc(C(=O)OC)cc3)c3ccc2[n-]3)cc1.[Mn]	12.5% (inactive)
O=c1[nH]nnc2cc(Cl)ccc12	-4.65% (inactive)
COC1C(=O)OC(=O)C1OC (stereo unspecified)	-1.05% (inactive)
Nc1cccc(S(=O)(=O)Nc2c(N)nc(SCC(=O)O)[nH]c2=O)c1	-19.7% (inactive)
CC(=O)OCC(C)Cc1ccccc1 (stereo unspecified)	-0.25% (inactive)

====

# EXPERIMENT: NCI Yeast Anticancer Drug Screen. Data for the bub3 strain (AID 167)
# CONDITION CONTEXT: S. cerevisiae bub3 mutant strain, at 50.0 µM, hits give high values
This is part of a sample that, as a whole, favours compounds with a hit. Of some 79,000 tested, about 15% had one in any assay.

COMPOUND	growth inhibition (%)
Cc1nc(Nc2ccc(Cl)cc2)c2cnn(-c3ccccc3)c2n1	6.75
CC1(C)[C@H]2CC[C@@]1(C)C(=O)[C@H]2[N+](=O)[O-]	-9.15
COc1ccccc1N/N=c1\c2nc3ccccc3nc1n(-c1ccccc1C)c(=S)n2-c1ccccn1	0.9
C/C=C/C=C/CC	16.9
COc1ccccc1/C=N/Nc1ccc([N+](=O)[O-])cc1[N+](=O)[O-]	16.8
CCC(=O)OC1CCCCC1C1CCCCC1 (stereo not given)	-3.45
CCCCCC(C)(O)CCC (stereo not given)	6.9
NC(=O)N1CCCCN1C(N)=O	6.75
O=C(c1ccncc1)n1nc(-c2ccccc2)c(N=Nc2ccccc2[N+](=O)[O-])c1-c1ccccc1	30.3
[Cl][Pt+2][Cl].[NH-]c1ccc(CC(=O)O)cc1[NH-]	-11.1
O=C(O)C1CC2CC2C1 (stereo not given)	16.1
O=[N+]([O-])c1cccc(-c2csc(NNC3=NC/C(=C/c4ccc5c(c4)OCO5)S3)n2)c1	23.6
Nc1cc(NC(=O)CO)cc(C(=O)O)c1	4.05
Nc1nc(-c2ccc(F)cc2)cc(-c2cc(-c3ccc(F)cc3)nc(N)n2)n1	-7.15
CCCC(CCC)(CCC)CCN(C)C	-8.65
CCCSc1cc(Cl)c(C)cc1S(=O)(=O)n1cc[nH]c1=O	13.3
CCN(CC)/[N+]([O-])=N/O	15.8
Cc1ccc(S(=O)(=O)OC(CI)C2OC(c3ccccc3)OC3COC(c4ccccc4)OC32)cc1 (stereo not given)	16.1
COC(=O)C(S)(NC(C)=O)C(C)C (stereo not given)	-18.8
Cc1[nH]c(=O)[nH]c(=O)c1C	-11.9
CCCCCC[C@H](C/C=C\CCCCCCCC(=O)OCCCC)OC(C)=O	-29.4
Cc1c(Cl)c(C)c(Cc2c(C)c(Cl)c(C)c(Cl)c2O)c(O)c1Cl	-5.2
O=C1c2cccc([N+](=O)[O-])c2C(=O)N1c1ncn[nH]1	-43.4
CC1(C)CC(=O)NC1=O	-19
CCCCC(O)(c1ccccc1)c1ccccc1CN(C)C (stereo not given)	-2.05
O=[N+]([O-])c1ccc(N2CCCC2)cc1	13.8
CCCCCC(=O)/C=C/CC(CCCCCCC#N)C(CC(OC)OC)[N+](=O)[O-] (stereo not given)	-1.75
OCc1cccc(F)c1	-21.4
CCNC(=O)NCc1cc(C)ccc1C	6.45
O=c1c2[nH]cnc2n(-c2ccccc2)c(=S)n1-c1ccccc1	-26.9
CC(=O)c1cc(C(C)=O)c2cc(C)cc(O)c2c1O	13.9
Fc1ccc2nncc(/C=C/c3ccccc3F)c2c1	11
CCOc1ccccc1NC(=O)c1ccc(Cl)cc1	14.3
COC(=O)NC1C(C)OC(OC2C/C=C(/C)C3C=CC4C(OC5CC(OC6CCC(OC7CC(O)C(OC8CCC(O)C(C)O8)C(C)O7)C(C)O6)C(OC(C)=O)C(C)O5)C(C)CC(C)C4C3(C)/C(O)=C3/C(=O)OC4(CC(C=O)=CC(O)C4/C=C\2C)C3=O)CC1(C)[N+](=O)[O-] (stereo not given)	22.9
Cc1ccc(S(=O)(=O)N2CCC(C(=O)O)(c3ccccc3)CC2)cc1	-56.2
OCC(O)C(O)C(O)C(Sc1ccccc1)Sc1ccccc1 (stereo not given)	-7.25
COc1ccc2c(c1OC)C1=NCCc3cc4c(cc3C1(OC)C2=O)OCO4 (stereo not given)	13.7
COc1ccc(C2C(C#N)=C(S)N(C3OC(COC(C)=O)C(OC(C)=O)C(OC(C)=O)C3OC(C)=O)C(c3ccccc3)=C2C(C)=O)cc1 (stereo not given)	-38.9
Cc1cc2ccccc2c2cc3ccccc3cc12	-2.05
C[Si](C)(OCCS(=O)(=O)O)C1(Cc2cccc3ccccc23)S(=O)(=O)OCCOS1(=O)=O	13.1
Cc1nn(C)c(C#N)c1[N+](=O)[O-]	-16.2
CCOC(=O)c1ccncc1	-1.5
FC(F)(F)c1ccc(C(Nc2nncs2)Nc2nncs2)cc1	7.6
S=c1nc[nH]c2nc[nH]c12	10.8
CN(C)c1ccc(/C=C(\C#N)c2ccccc2Br)cc1	29.6
